- study system: Cellular tumor antigen p53 (Homo sapiens) (UniProt P04637)
- Sequence (P04637 whole entry, looked up): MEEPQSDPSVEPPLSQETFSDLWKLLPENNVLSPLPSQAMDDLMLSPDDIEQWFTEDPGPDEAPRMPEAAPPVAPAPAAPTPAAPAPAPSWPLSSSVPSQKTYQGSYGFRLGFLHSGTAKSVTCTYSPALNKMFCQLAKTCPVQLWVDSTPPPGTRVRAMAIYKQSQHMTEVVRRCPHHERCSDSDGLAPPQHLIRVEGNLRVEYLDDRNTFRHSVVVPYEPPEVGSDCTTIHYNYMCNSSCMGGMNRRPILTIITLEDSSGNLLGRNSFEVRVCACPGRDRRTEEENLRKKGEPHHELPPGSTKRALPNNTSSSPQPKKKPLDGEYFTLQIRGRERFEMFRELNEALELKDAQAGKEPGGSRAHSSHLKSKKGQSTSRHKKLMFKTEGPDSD
- assay details: TOX21_p53_BLA_p5_ratio: Tox21 HCT-116 p53 Agonism Beta-lactamase Assay, Ratio, Phase 5 (AID 2283599)
- Protocol: TOX21_p53_BLA_p5 is a cell-based, single-readout assay that uses HCT116, a human intestinal cell line, […] in a 1536-well plate.TOX21_p53_BLA_p5_ratio is an assay readout measuring reporter gene via receptor activity and designed using inducible reporter (beta lactamase induction) detected with GAL4 b-lactamase reporter gene. […] This assay endpoint, TOX21_p53_BLA_p5_ratio, was analyzed in the positive analysis fitting direction relative to DMSO as the negative control and baseline of activity. […]
Results filed as inconclusive are left out. The source made the active and inactive calls. The calls were made as follows: active = hit-call score of the fitted dose curve at least 0.9, where 1 is the maximum; inconclusive = response in the unintended direction; inactive = score below 0.9.
Bench note: report the call from TRUE (active), FALSE (inactive)

Which result was noted for this compound in the test: CCCn1cnc2c1c(=O)n(CCCCC(C)=O)c(=O)n2C FALSE

Record: CCOC(=O)Oc1c(OC)cc(C(=O)O[C@@H]2C[C@@H]3CN4CCc5c([nH]c6cc(OC)ccc56)[C@H]4C[C@@H]3[C@H](C(=O)OC)[C@H]2OC)cc1OC FALSE

Input CC(C)NCC(O)c1ccc(NS(C)(=O)=O)cc1 (stereo not drawn) FALSE

Follow-up item: Cc1cc(C(C)(C)C)cc(C)c1CC1=NCCN1 FALSE

Same for Nc1c(NC/C=C\COc2cc(CN3CCCCC3)ccn2)c(=O)c1=O FALSE

Then what about the compound CC(C)(C)OC=O ? FALSE

Please give the result for NCCCC[C@H](NC(=O)[C@@H]1CCCN1C(=O)[C@@H]1CSSC[C@H](N)C(=O)N[C@@H](Cc2ccccc2)C(=O)N[C@@H](Cc2ccccc2)C(=O)N[C@@H](CCC(N)=O)C(=O)N[C@@H](CC(N)=O)C(=O)N1)C(=O)NCC(N)=O too. FALSE

// repeat for OCC=CCO and report FALSE

Thanks! And Cc1cc(-c2ccccc2)nnc1NCCN1CCOCC1 ? FALSE

O=C(c1ccccc1)c1ccc2n1CCC2C(=O)O (stereo not drawn) , same question. FALSE

Others:
Look up the recorded call for C=Cc1ccc(S(=O)(=O)O)cc1 in this test. FALSE

###

- study system: Cellular tumor antigen p53 (Homo sapiens)
- assay details: TOX21_p53_BLA_p3_ratio: Tox21 HCT-116 p53 Agonism Beta-lactamase Assay, Ratio, Phase 3 (AID 2283596)
Records with an inconclusive call do not appear. Active and inactive are the calls of the source. How the source made its calls: active means hit-call score of the fitted dose curve at least 0.9, where 1 is the maximum; inconclusive means response in the unintended direction; inactive means score below 0.9.
Log the outcome using a class from active, inactive

Could you kindly confirm the outcome this assay logged for C1OCOCO1 ? inactive

Now the same for CC(CO)Oc1ccccc1 (stereo not drawn) inactive

What do you get for CCCCCCCCCCCCCCCC(=O)OCC(COC(=O)CCCCCCCCCCCCCCC)OC(=O)CCCCCCCCCCCCCCC ? inactive

Request: O=C(O)c1cc(-c2ccccc2)nc2ccccc12 inactive

Then this compound: CO/N=C(\C(=O)N[C@@H]1C(=O)N2C(C(=O)O)=C(COC(C)=O)CS[C@H]12)c1csc(N)n1 (stereo in doubt) inactive

Further cases:
Please share the test call associated with CC(=O)OCCN(CCOC(C)=O)c1ccc(N=Nc2ccc([N+](=O)[O-])cc2C#N)cc1 . inactive

Queued: NCCNCCO inactive

Now give it for Oc1ccc(C2(c3ccc(O)cc3)CC3CC2C2CCCC32)cc1 (stereo not drawn) too. inactive

What do we get for CCCCCC[C@@H](CCC)C(=O)O ? inactive
